Measured values drawn from the supplement of paper PMC8728848 for this set.

Parameter: glycan array binding signal (z-score). Scope: all listed entries.
# tested_system: Gal(b1-3)GlcNAc(b1-3)GalNAc
# run_description: glycan array binding signal (z-score within array); higher = stronger binding
# assay_conditions: glycan notation: IUPAC condensed, linker removed
This excerpt belongs to a sample that is enriched for the strongest signals.
Reply briefly: the number, and no unit.

The examples below pair each entry with its known result.
Name the reported glycan array binding signal (z-score) value associated with the binder LlpA1 (Pseudomonas fluorescens), Q4KHC3 (protein) MGSSHHHHHHSSGLVPRGSHMAWIRYDFTDNGSSVLPARYYMAPNQYLQSPNKRFKLLFQADGNLALYDGAQLAWVADQNTPFTNVSKGNKKDPMMVFMNYGFVLDDPLRGRIWSTTPSDPTMGSREDASLRAFTQVQDDGNIVTVDTIPHWYAPNGRVFTPAVGAAMIIGGTTELVPGQFYSAGEHSLVFQGDGNLVVYGPNSSVIWATYTQNKGGVRCVMQEDGNLVIYAANNGVVWQSGTGGHPGATIRLQANGSFTIVTERPVWARFGYTPTIKPPRVFYPDHKWKTGSYTWNNVF
-0.529

Name the reported glycan array binding signal (z-score) value associated with the binder GSL-I (Griffonia simplicifolia) (protein) FNLPNFWSDVKDNIIFQGDANTTAGTLQLCKTNQYGNPLQYRAGRALYSDPVQLWDNKTGSVASFYTEFTFFLKITGDGPADGLAFFLAPPDSDVKDAGAYLGLFNKSTATQPSKNQVVAVEFDTWKNTDFPEPSYRHIGINVNSIVSVATKRWEDSDIFSGKIATARISYDGSAKILTVVLSYPDGADYILSHSVDLSKNLPNPIRVGISASTGANQFLTVYVLSWRFSSALQSTSVNAAMGPEIIRTVV
-0.203

Name the reported glycan array binding signal (z-score) value associated with the binder CALR truncated at D342 (Homo sapiens) (protein) EPAVYFKEQFLDGDGWTSRWIESKHKSDFGKFVLSSGKFYGDEEKDKGLQTSQDARFYALSASFEPFSNKGQTLVVQFTVKHEQNIDCGGGYVKLFPNSLDQTDMHGDSEYNIMFGPDICGPGTKKVHVIFNYKGKNVLINKDIRCKDDEFTHLYTLIVRPDNTYEVKIDNSQVESGSLEDDWDFLPPKKIKDPDASKPEDWDERAKIDDPTDSKPEDWDKPEHIPDPDAKKPEDWDEEMDGEWEPPVIQNPEYKGEWKPRQIDNPDYKGTWIHPEIDNPEYSPDPSIYAYDNFGVLGLDLWQVKSGTIFDNFLITNDEAYAEEFGNETWGVTKAAEKQMKD
-0.05

Name the reported glycan array binding signal (z-score) value associated with the binder PpFlo3 (Pichia pastoris) (protein) MGSSHHHHHHSSGLVPRGSHMQESGNGTTSDTAYACDIGATPFDGFNATIYQYQASDDNSIQDPVFMSTGYLQRNQLHSTTGVTNPGFNIFTAGVATTTLYGIPNVNYQNMLLELKGYFRADASGNYGLSLRNIDDSAILFFGRETAFECCNENLIPLDEAPTDYSLFTIKEGEASTNPDSYTYTQYLEAGRYYPVRTFFANIRTRAVFNFTMTLPDGSELTDFQNYIFQFGALNQ
-0.296

Continuing:
Name the reported glycan array binding signal (z-score) value associated with the binder HPL (Tachypleus tridentatus) (protein) MEDDCTCVTDRSLEGKLMKHPSTPAVYQILDGCRRLVPNPPTYNNIYKNWECIQSNILEKLLCKCDSLSNGAELIKGSGDTVYLLSNGVKRPIADPETFNGFCFDWNKIKTYSDIVINSLSTGPIIIIKHHHHHH
-0.36

Name the reported glycan array binding signal (z-score) value associated with the binder SUN4 (Saccharomyces cerevisiae), P53616 (protein) MGSSHHHHHHSSGLVPRGSHNGSIYGDLADFSGPYEKFEDGTIPCGQFPSGQGVIPISWLDEGGWSGVENTDTSTGGSCKEGSYCSYACQPGMSKTQWPSDQPSDGRSIGGLLCKDGYLYRSNTDTDYLCEWGVDAAYVVSELSNDVAICRTDYPGTENMVIPTYVQAGDSLPLTVVDQDTYYTWQGLKTSAQYYVNNAGISVEDACVWGSSSSGVGNWAPLNFGAGSSDGVAYLSLIPNPNNGNALNFNVKIVAADDSSTVNGECIYENGSFSGGSDGCTVSVTAGKAKFVLYN
-0.163

Name the reported glycan array binding signal (z-score) value associated with the binder ACA (Amaranthus caudatus) (protein) MAGLPVIMCLKSNNNQKYLRYQSDNIQQYGLLQFSADKILDPLAQFEVEPSKTYDGLVHIKSRYTNKYLVRWSPNHYWITASANEPDENKSNWACTLFKPLYVEEGNMKKVRLLHVQLGHYTQNYTVGGSFVSYLFAESSQIDTGSKDVFHVIDWKSIFQFPKRYVTFKGNNGKYLGVITINQLPCLQFGYDNLNDPKVAHEMFVTSNGTICIKSTYMNKFWRLSTDDWILVDGNDPRETNEAAALFRSDVHDFNVISLLNMQKTWFIKRFTSGKPGFINCMNAATQNVDETAILEIIELGSNN
0.052

Name the reported glycan array binding signal (z-score) value associated with the binder SP15308A-bot-339-19-339 (Bacteroides ovatus) (protein) ACNNEWEDEQYEQYISFKSPIPAGGEGVTDIYVRYKEDGKVTYRLPIVVSGSTTNTLDREVHIAVDKDTLETLNIERFSIHRPGLWYTALEEDKYDFPKTVHISAGSSVEQLNIDFNLQGIDMLEKWVLPLTIVDDPSYNYKSHPRKNYAKALLRVIPFNNYSGSYTSSAMKVYTYINGKPDTNARTANKRTGYVINDNTVFFYAGLISEDLDKEVREKYKINVHFNEDGTLHMEQGDPTNKMKFELIGTPTYSKTSVMDATRPYLERRYVQIMFEYDFEDFSYGGNGVDVIPIKYKVEGSMTLQRNINTQIPDEDQQIEW
0.029

Name the reported glycan array binding signal (z-score) value associated with the binder KILRGVCKKIMRTFLRRISKDILTGKK [NK2 (Sus scrofa)]
-0.33

Name the reported glycan array binding signal (z-score) value associated with the binder AAL (Aleuria aurantia), P18891 (protein) PTEFLYTSKIAAISWAATGGRQQRVYFQDLNGKIREAQRGGDNPWTGGSSQNVIGEAKLFSPLAAVTWKSAQGIQIRVYCVNKDNILSEFVYDGSKWITGQLGSVGVKVGSNSKLAALQWGGSESAPPNIRVYYQKSNGSGSSIHEYVWSGKWTAGASFGSTVPGTGIGATAIGPGRLRIYYQATDNKIREHCWDSNSWYVGGFSASASAGVSIAAISWGSTPNIRVYWQKGREELYEAAYGGSWNTPGQIKDASRPTPSLPDTFIAANSSGNIDISVFFQASGVSLQQWQWISGKGWSIGAVVPTGTPAGW
-0.414
